# Test system: Mino (cancer type: Mantle)
# assayDetails: normalized area under the dose-response curve (viability relative to DMSO control) (fraction); higher = less sensitive (more viable cells)
# testSettings: exposure time not given
Where a name gives a salt, the structure may show the parent alone.
experimentalEndpoint: normalized area under the dose-response curve
Answer using only a numeral; do not append any unit.

{"compound": "CC(=O)c1c(C)c2cnc(Nc3ccc(N4CCNCC4)cn3)nc2n(C2CCCC2)c1=O", "experimentalValue": 0.655}
{"compound": "CC(C)C[C@H](NC(=O)CNC(=O)c1cc(Cl)ccc1Cl)B(O)O", "experimentalValue": 0.14}
{"compound": "CCc1cnn2c(NCc3ccc[n+]([O-])c3)cc(N3CCCC[C@H]3CCO)nc12", "experimentalValue": 0.392}

Okay, now this compound:
// field: normalized area under the dose-response curve; key: C#Cc1cccc(Nc2ncnc3cc(OCCOC)c(OCCOC)cc23)c1 [Erlotinib hydrochloride] ; value = 0.95
